Experiment: Toxicity liver stage against HepG2, at 10uM
Type: cell-based
Parameters: test concentration 10 uM, cell line HepG2-A16-CD81EGFP
Settings: human, HepG2-A16-CD81EGFP cells; read-out: INHIBITION
Field: cytotoxicity at 10 µM. Provide a value for each of the molecules that follow.
Numbers only, in %.

// known answers, use as guide
molecule: N#Cc1ccccc1N1CCCN(C(=O)CCc2ccco2)CC1
cytotoxicity at 10 µM [%]: -8.48
//
molecule: CCc1nccn1CCCNC(=O)c1cnn(-c2ccccc2OC)c1
cytotoxicity at 10 µM [%]: -17.1
//
molecule: O=C(c1ccnnc1)N1C[C@H](Oc2cccnc2)[C@H]2OCCC[C@H]21
cytotoxicity at 10 µM [%]: -14.7
//
molecule: CCS(=O)(=O)N[C@H]1CN(CC(C)(C)N2CCOCC2)C[C@@H]1C1CC1
cytotoxicity at 10 µM [%]: 1.04
//
molecule: CCC(CO)NC(=O)Nc1ccc(OCC(F)(F)F)c(C)c1 (centres undefined)
cytotoxicity at 10 µM [%]: 10.9
//
molecule: CCC(CC)c1cc(CNC(=O)N2CCCN(C(C)=O)CC2)on1
cytotoxicity at 10 µM [%]: -7.55
//
molecule: Cc1cc(NS(=O)(=O)c2cnc3onc(C)c3c2)no1
cytotoxicity at 10 µM [%]: 4.43
//
molecule: COc1cccc(C2CCCN2Cc2nnnn2C2CC2)c1 (centres undefined)
cytotoxicity at 10 µM [%]: 4.17

Required: cytotoxicity at 10 µM, one value per molecule below.
1. CC(=O)N[C@@H](CC(C)C)C(=O)N1CCC(n2cc(CC(C)C)nn2)CC1
2. CC(C)(C)c1nnc(CNc2cc(F)ccc2OCC2CCCO2)o1 (centres undefined)
3. CN(C)C(C(=O)NCCSc1ncn[nH]1)c1cccc(F)c1 (centres undefined)
4. CN(C)CCN1CC[C@@H]2O[C@@H](COCC(=O)N3CCCC3)CC[C@@H]21
5. CCOc1ccc(Cl)c(C(=O)N2CCN(CCO)CC2)n1

(A)
[-10.8, 3.06, -1.64, -1.78, -5.15]

Answer for every listed entry: what is its cytotoxicity at 10 µM? The entries follow.
1. Cc1c(C(=O)NCC2CCS(=O)(=O)C2)cnn1-c1ccccc1 (centres undefined)
2. O=C(NC1CCC1)[C@@H]1CC[C@@H]2[C@@H](CCN2CCc2ccccc2)O1
3. CN1CCC(NC(=O)NCCNc2ccccn2)CC1
4. Cc1nn(CC(C)C)c(N(C)C)c1CNCCS(C)(=O)=O
5. CCOc1ccccc1C(C(=O)O)N(C)Cc1nnc(C)o1 (centres undefined)
6. CCOC(CC)C(=O)NCc1ccnc(Oc2ccc(F)cc2)c1 (centres undefined)
7. CC(C)(O)CCc1ccc(C(=O)NCCC2CCCOC2)cc1 (centres undefined)

(A)
[-10.2, -127, -1.72, 6.59, -9.77, -1.43, 0.782]

Need cytotoxicity at 10 µM for each of these molecules.
1. CC1(C)CC1C(=O)NS(=O)(=O)Cc1cc(-c2ccccc2)no1 (centres undefined)
2. COCCNC(=O)N1CCCC1COc1ccccc1 (centres undefined)
3. Cc1ccc(C(NC(=O)CN2CCc3c(ncn3C)C2)C2CC2)cc1 (centres undefined)
4. OCCN1CCN(CCOCC(F)(F)F)CC1

(A)
[-11, 2.04, -2.43, -4.47]

###

For each of the compounds below, state its cytotoxicity at 10 µM.
Test: Toxicity liver stage against HepG2, at 10uM
Assay type: cell-based
Set-up: test concentration 10 uM, cell line HepG2-A16-CD81EGFP
Settings: human, HepG2-A16-CD81EGFP cells; read-out: INHIBITION
One number for each entry, in %.

Could I get cytotoxicity at 10 µM for every one of these entries?
1. O=C(c1csnn1)N1CCc2[nH]nc(COc3cccc(Cl)c3)c2C1
2. COc1ccc(C2CCCN2Cc2nc3c(cnn3C)c(=O)[nH]2)cc1 (stereo unspecified)
3. O=C(c1ccco1)N1CCc2onc(Cn3cccn3)c2C1
4. Cn1ccc(CN2CCC(CN3CCOCC3)CC2)cc1=O

(A)
1. -60
2. -9.77
3. -1.22
4. -11

Could I get cytotoxicity at 10 µM for every one of these entries?
1. Cc1cc(-c2cnn(C)c2)ccc1OCC(N)=O
2. CS(=O)(=O)N1Cc2nccn2CC(CNC(=O)c2cccnc2)C1 (stereo unspecified)

(A)
2.74
-143

###

Assay: Toxicity liver stage against HepG2, at 10uM
Format: cell-based
Set-up: test concentration 10 uM, cell line HepG2-A16-CD81EGFP
Conditions: human, HepG2-A16-CD81EGFP cells; read-out: INHIBITION
Give cytotoxicity at 10 µM for every item shown.
One number for each entry, in %.

Record excerpt, results attached:
compound: Cn1ccc(C(=O)Nc2cc(F)ccc2OCC2CCCO2)cc1=O (stereo not drawn)
cytotoxicity at 10 µM / %: -1.59
--
compound: c1cncc(-c2nnn3c2COCC(CNCC2CCOCC2)C3)c1 (stereo not drawn)
cytotoxicity at 10 µM / %: -75.4

Required: cytotoxicity at 10 µM, one value per compound below.
1. CCc1nc(CN2CCN(C(C)c3nc(C4CC4)no3)CC2)no1 (stereo not drawn)
2. CS(=O)(=O)NCC1CCCN(c2ccc(C(F)(F)F)cn2)C1 (stereo not drawn)

(A)
-9.45
-17.3

###

Assay: Toxicity liver stage against HepG2, at 10uM
Format: cell-based
Set-up: test concentration 10 uM, cell line HepG2-A16-CD81EGFP
Conditions: human, HepG2-A16-CD81EGFP cells; read-out: INHIBITION
measurement-name: cytotoxicity at 10 µM (%)
Numbers only, in %.

Below, 5 molecules whose answers are already recorded.
molecule: NC(=O)COc1cccc(CN2CCCC2c2ccc[nH]2)c1 (configuration not stated)
cytotoxicity at 10 µM (%): 8.58

molecule: O=C(c1ccccc1)N1CC(C(=O)N2CCOCC2)C2(CCOCC2)C1 (configuration not stated)
cytotoxicity at 10 µM (%): 3.07

molecule: C1CC(NCC2CC2)CN(Cc2noc(C3CC3)n2)C1 (configuration not stated)
cytotoxicity at 10 µM (%): -3.09

molecule: N[C@H]1CN(C(=O)c2ccc3[nH]c(CO)nc3c2)C[C@@H]1c1ccccc1
cytotoxicity at 10 µM (%): -1.82

molecule: COc1ccc(-n2ncc(C(C)NC3CCSCC3)c2C)cc1 (configuration not stated)
cytotoxicity at 10 µM (%): -4.57

Quick one: give me cytotoxicity at 10 µM for each item below, same order please.
1. Cn1cc(N2CCCC(Nc3ccc4c(c3)NC(=O)CC4)C2=O)cn1 (configuration not stated)
2. Cc1ccc2c(c1)OC(C)CN2C(=O)CCc1cccnc1 (configuration not stated)
3. CCn1cc(S(=O)(=O)NC2CCCN(CC3CCCCC3)C2)cn1 (configuration not stated)
4. O=C(c1nc2c(s1)CCCN2C(=O)C1CC1)N1CCCC1

(A)
-1.61
-52.8
-7.25
7.02

Provide reported cytotoxicity at 10 µM for each item, in the same order as listed.
1. CCC(CNC(=O)c1cc(CC(C)C)nn1C)N(C)CC (configuration not stated)
2. CCOc1ncccc1NC(=O)N1CCN(CC(=O)NC)CC1
3. CNC(=O)CCNC(=O)c1ccccc1N1CCOCC1

(A)
[-5.99, -2.66, 2.29]

###

Experiment: Toxicity liver stage against HepG2, at 10uM
Type: cell-based
Design: test concentration 10 uM, cell line HepG2-A16-CD81EGFP
Conditions: human, HepG2-A16-CD81EGFP cells; read-out: INHIBITION
Would you kindly list cytotoxicity at 10 µM for each of these compounds?
Give bare numbers, in %.

Answered examples (3):
compound: CC(C)n1c(C2CCCN(CC(=O)NC3CC3)C2)nc2ccccc21 (stereo unspecified)
cytotoxicity at 10 µM (%): -5.54
//
compound: Cc1nnc(CN2CCCC2c2ccc3c(c2)OCCCO3)n1C (stereo unspecified)
cytotoxicity at 10 µM (%): 4.86
//
compound: CCOCC1CN(C(=O)Cc2ccccn2)Cc2c1cnn2CC (stereo unspecified)
cytotoxicity at 10 µM (%): -69.3

Parameters: items (list). Returns: cytotoxicity at 10 µM for each item.
1. O=C(N[C@@H]1CN(Cc2cccc3[nH]ccc23)C[C@H]1O)c1cscn1
2. COCC1CN(C(=O)c2ccnnc2)Cc2ncnn2C1 (stereo unspecified)
3. CCC1CN(C(=O)c2[nH]nc(C)c2Br)CCO1 (stereo unspecified)

(A)
-2.86
-4.24
-3.22

###

Experiment: Toxicity liver stage against HepG2, at 10uM
Format: cell-based
Set-up: test concentration 10 uM, cell line HepG2-A16-CD81EGFP
Details: human, HepG2-A16-CD81EGFP cells; read-out: INHIBITION
measurement-name: cytotoxicity at 10 µM (%)
Give bare numbers, in %.

Okay, here is my list. What is cytotoxicity at 10 µM for each of these?
1. CC(Cn1cccn1)NC(=O)CCc1nc(C(C)(C)C)no1 (configuration not stated)
2. Cc1ccc(CN(Cc2ncc[nH]2)C2CC(C)(C)NC(C)(C)C2)o1

(A)
1. 14.5
2. -15.2
